The measured values listed here are drawn from PubChem BioAssay (NCI).

# Tested on: OVCAR-5 ovarian
# Experiment summary: NCI-60 one-dose screen, 48 h
# Run parameters: 10 µM unless noted
The panel holds about 83,000 compounds, 20% with a hit somewhere; the sample as a whole holds those more often. Activity calls are given as the source filed them. Rule for the calls: active = growth percent below 10; inactive = the rest.
Outcome codes: true = active, false = inactive

- Molecule: "C=COC(=O)CCOCC(CC)CCCC (stereo not drawn)"
  Class: "false"
- Molecule: "C=CCN1CCCC1=O"
  Class: "false"
- Molecule: "BrCc1cccc(C[P+](c2ccccc2)(c2ccccc2)c2ccccc2)c1"
  Class: "false"
- Molecule: "CC1CC(C)S(=O)(=O)C1 (stereo not drawn)"
  Class: "false"
- Molecule: "COc1cc2c(c(OC)c1OC)-c1ccc(SC)c(=O)cc1[C@@H](NC1OC(CO)C(O)C(O)C1O)CC2 (stereo partly drawn)"
  Class: "false"
- Molecule: "CCC(C)C1CCC(O)CC1 (stereo not drawn)"
  Class: "false"
- Molecule: "O=Cc1c(O)c2ccccc2[nH]c1=O"
  Class: "false"
- Molecule: "CC1(C)CCC(C)(C)NC(=S)N1"
  Class: "false"
- Molecule: "CC(=O)NCNC(C)=O"
  Class: "false"
- Molecule: "CC(=O)c1cccc(O)c1"
  Class: "false"
- Molecule: "ClCC(Cl)C1CCC(Cl)C(Cl)C1 (stereo not drawn)"
  Class: "false"
- Molecule: "C1=NCCc2ccccc21"
  Class: "false"
- Molecule: "CC(=O)N=c1ccc2nc3c(cc(N)c4ccccc43)oc-2c1"
  Class: "true"
